# TEST DESCRIPTION: DRUGMATRIX: Imidazoline I2, Central radioligand binding (ligand: [3H] Idazoxan)
# Format: cell membranes, Rattus norvegicus, Wistar, Cerebral cortex, Membrane
# SETTINGS: Not Active = under 50% inhibition at 10 µM
ASSAY READOUT: IC50

- COMPOUND STRING: "Cn1c(=O)c2c(ncn2CC2OCCO2)n(C)c1=O"
  ASSAY READOUT: "IC50"
  REPORTED MEASUREMENT: "Not Active"
- COMPOUND STRING: "CC[C@]1(O)C[C@@H]2CN(CCc3c([nH]c4ccccc34)[C@@](C(=O)OC)(c3cc4c(cc3OC)N(C)[C@H]3[C@@](O)(C(=O)OC)[C@H](OC(C)=O)[C@]5(CC)C=CCN6CC[C@]43[C@@H]65)C2)C1"
  ASSAY READOUT: "IC50"
  REPORTED MEASUREMENT: "Not Active"
- COMPOUND STRING: "COc1cc2c(c3oc(=O)c4c(c13)CCC4=O)[C@@H]1C=CO[C@@H]1O2"
  ASSAY READOUT: "IC50"
  REPORTED MEASUREMENT: "Not Active"

* * *

# SYSTEM UNDER TEST: Muscarinic acetylcholine receptor M5 (Homo sapiens, UniProt P08912); note: in other assays of this panel Not Active means under 50% inhibition at 10 µM
# Sequence (P08912 whole entry): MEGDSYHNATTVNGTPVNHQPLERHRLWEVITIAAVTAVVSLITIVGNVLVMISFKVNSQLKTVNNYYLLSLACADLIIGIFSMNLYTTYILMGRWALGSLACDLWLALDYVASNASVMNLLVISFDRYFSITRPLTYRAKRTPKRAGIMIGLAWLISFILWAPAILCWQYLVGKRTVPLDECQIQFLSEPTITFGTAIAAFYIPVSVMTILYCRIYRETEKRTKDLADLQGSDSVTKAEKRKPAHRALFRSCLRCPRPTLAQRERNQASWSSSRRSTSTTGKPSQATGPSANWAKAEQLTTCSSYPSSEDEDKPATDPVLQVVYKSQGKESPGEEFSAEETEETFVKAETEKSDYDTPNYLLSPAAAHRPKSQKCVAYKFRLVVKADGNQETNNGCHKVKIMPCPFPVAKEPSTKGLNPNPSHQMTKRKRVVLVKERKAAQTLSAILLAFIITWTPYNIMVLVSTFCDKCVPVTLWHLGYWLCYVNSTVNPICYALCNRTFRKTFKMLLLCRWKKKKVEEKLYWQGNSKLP
# Format: cell membranes, CHO-K1, Membrane
# SETTINGS: cho-k1
Where a SMILES comes first, the peptide text is derived from it. Bridges are numbered along the chain shown (N, C = ends). [ ]: non-standard residue; d: D form. The star is where a group is joined. Threoninol(2S,3R) = C[C@@H](O)[C@H](CO)N*
ASSAY READOUT: IC50

Examples with answers:
- MOLECULE: "O=C1CCC(N2C(=O)c3ccccc3C2=O)C(=O)N1 (stereo not given) [THALIDOMIDE]"
  IC50: "Not Active"
- MOLECULE: "NC(=O)c1cnccn1 [PYRAZINAMIDE]"
  IC50: "Not Active"
- MOLECULE: "CC1=C(CC(=O)O)c2cc(F)ccc2/C1=C\\c1ccc([S+](C)[O-])cc1 (stereo not given)"
  IC50: "Not Active"
- MOLECULE: "CN1C(C(=O)Nc2ccccn2)=C(O)c2sccc2S1(=O)=O [TENOXICAM]"
  IC50: "Not Active"
- MOLECULE: "CCCCN1CCCCC1C(=O)Nc1c(C)cccc1C.Cl (stereo not given) [BUPIVACAINE HYDROCHLORIDE]"
  IC50: "Not Active"
- MOLECULE: "C=C1CC[C@H](O)C/C1=C/C=C1\\CCC[C@]2(C)[C@@H]([C@H](C)CCCC(C)C)CC[C@@H]12 [CHOLECALCIFEROL]"
  IC50: "Not Active"

Field: IC50. Fill in for each record below.
1. CCn1cc(C(=O)O)c(=O)c2cc(F)c(N3CCN(C)CC3)cc21 [PEFLOXACIN]
2. O=C(N[C@H](CO)[C@H](O)c1ccc([N+](=O)[O-])cc1)C(Cl)Cl [CHLORAMPHENICOL]
3. Oc1ccc(OCc2ccccc2)cc1 [MONOBENZONE]
4. Cc1ccc(S(=O)(=O)NC(=O)NN2CC3CCCC3C2)cc1 (stereo not given) [GLICLAZIDE]
5. CCCC(CCC)C(=O)O [VALPROIC ACID]
6. C[C@@H](O)[C@H](CO)NC(=O)[C@@H]1CSSC[C@H](NC(=O)[C@H](N)Cc2ccccc2)C(=O)N[C@@H](Cc2ccccc2)C(=O)N[C@H](Cc2c[nH]c3ccccc23)C(=O)N[C@@H](CCCCN)C(=O)N[C@@H]([C@@H](C)O)C(=O)N1 (H-[dF]CF[dW]KTC-{Threoninol(2S,3R)}; disulfide 2-7)

Reply text:
1: Not Active; 2: Not Active; 3: Not Active; 4: Not Active; 5: Not Active; 6: Not Active

State the recorded IC50 for every item in the following list.
1. CN(C)/N=N/c1[nH]cnc1C(N)=O [DACARBAZINE]
2. Cc1ccccc1C(=O)N1CCC(Cc2ccccc2)CC1
3. C[C@]1(Cn2ccnn2)[C@H](C(=O)O)N2C(=O)C[C@H]2S1(=O)=O [TAZOBACTAM]
4. C[C@]12CC[C@@H]3c4ccc(OC(=O)c5ccccc5)cc4CC[C@H]3[C@@H]1CC[C@@H]2O [ESTRADIOL BENZOATE]

Reply text:
1: Not Active; 2: Not Active; 3: Not Active; 4: Not Active

Look up IC50 for the entries below, preserving their order.
1. CCN[C@@H]1C[C@H](N)[C@@H](O[C@H]2OC(CN)=CC[C@H]2N)[C@H](O)[C@H]1O[C@H]1OC[C@](C)(O)[C@H](NC)[C@H]1O [NETILMICIN]
2. CC(=O)OCC(=O)[C@@]1(O)CC[C@H]2[C@@H]3CCC4=CC(=O)CC[C@]4(C)[C@H]3C(=O)C[C@@]21C [CORTISONE ACETATE]
3. C/C=C/C[C@@H](C)[C@@H](O)[C@H]1C(=O)N[C@@H](CC)C(=O)N(C)CC(=O)N(C)[C@@H](CC(C)C)C(=O)N[C@@H](C(C)C)C(=O)N(C)[C@@H](CC(C)C)C(=O)N[C@@H](C)C(=O)N[C@H](C)C(=O)N(C)[C@@H](CC(C)C)C(=O)N(C)[C@@H](CC(C)C)C(=O)N(C)[C@@H](C(C)C)C(=O)N1C [CYCLOSPORINE]
4. CC1(C)O[C@@H]2C[C@H]3[C@@H]4C[C@H](F)C5=CC(=O)C=C[C@]5(C)[C@H]4[C@@H](O)C[C@]3(C)[C@]2(C(=O)CO)O1 [FLUNISOLIDE]
5. C[C@@]12C(=O)OC(=O)[C@]1(C)[C@H]1CC[C@@H]2O1 [CANTHARIDIN]

Reply text:
["Not Active", "Not Active", "Not Active", "Not Active", "Not Active"]

For every record below, what is its IC50?
1. Cc1ncc([N+](=O)[O-])n1CCO [METRONIDAZOLE]
2. COc1ccc2c(c1)[C@]13CCCC[C@@H]1[C@H](C2)N(C)CC3 [DEXTROMETHORPHAN]
3. O=C1CC2(CCCC2)CC(=O)N1CCCCN1CCN(c2ncccn2)CC1 [BUSPIRONE]

Reply text:
Not Active
Not Active
Not Active
